The measured values listed here are drawn from patent US10463644B2.

Would you kindly list viability at 20 µM for each of these molecules?
# Test system: cancer cells
# experiment: Survival rate of cancer cells after test compound is added (flow cytometry, Annexin V-FITC/PI, clinical specimen)
# Format: cell-based, patient
# measurement conditions: Homo sapiens, 18 h, Lung adenocarcinoma; 20.0 μM; read-out: Survival rate (%) All cells (Stem cells and ordinary cells)
Answers are plain numbers, in %.

>>> data_value("CC1=C2CC[C@@](C)(O)[C@@H]2[C@H]2OC(=O)[C@@H](CN(C)C)[C@@H]2CC1")
87
>>> data_value("C=C1C(=O)O[C@@H]2[C@H]3C(C)=CC[C@@]34O[C@@]4(C)CC[C@@H]12")
47
>>> data_value("C=C1C(=O)O[C@H]2[C@H]1CCC(C)=C1CC[C@@](C)(OC(=O)CCCc3cn(CCCCCCO)nn3)[C@@H]12")
64
>>> data_value("[2H][C@@]1(CN(C)C)C(=O)O[C@@H]2[C@@H]3[C@@H](CCC34CC4)C3(CC[C@H]21)CC3")
86
>>> data_value("CCOC(=O)[C@@H]1CCCN1C[C@@H]1C(=O)O[C@H]2[C@H]1CCC1(CC1)[C@@H]1CCC3(CC3)[C@H]21")
89

I need viability at 20 µM for every entry listed below, if you could help.
1. C=C1C(=O)O[C@H]2[C@H]1CC[C@]1(C)O[C@@]13CC[C@@](C)(O)[C@H]23
2. CN(C)C[C@@H]1C(=O)O[C@H]2[C@H]1CCC1(CC1)[C@@H]1CCC3(CC3)[C@H]21
3. C=C1C(=O)O[C@@H]2[C@@H]3[C@@H](CC[C@@]3(C)O)C(=C)CC[C@@H]12
4. C=C1CC[C@H]2C(=C)CC[C@H]3C(=C)C(=O)O[C@@H]3[C@@H]12

[A]
64
87
64
46

----------
# System: cancer stem cells
# experiment: Survival rate of cancer stem cells after test compound is added (flow cytometry, Annexin V-FITC/PI, clinical specimen)
# Assay type: cell-based, patient
# measurement conditions: Homo sapiens, 18 h, Brain glioma; 20.0 μM
quantity measured: viability at 20 µM (%)
One number for each entry, in %.

Some compounds with recorded viability at 20 µM:
>>> data_value("C=C1C(=O)O[C@@H]2[C@H]3C(C)=CC[C@@]34O[C@@]4(C)CC[C@@H]12 [Compound 50]")
47
>>> data_value("C=C1C(=O)O[C@H]2[C@H]1CC[C@]1(C)O[C@@]13CC[C@@](C)(O)[C@H]23 [Compound 24]")
42
>>> data_value("[2H][C@@]1(CN(C)C)C(=O)O[C@@H]2[C@@H]3[C@@H](CCC34CC4)C3(CC[C@H]21)CC3 [Compound 46]")
81
>>> data_value("CCOC(=O)[C@@H]1CCCN1C[C@@H]1C(=O)O[C@H]2[C@H]1CCC1(CC1)[C@@H]1CCC3(CC3)[C@H]21 [Compound 29]")
76

Okay, now this compound:
[Q] Lab request: please report viability at 20 µM under test system cancer stem cells for C=C1C(=O)O[C@@H]2[C@@H]3[C@@H](CC[C@@]3(C)O)[C@](C)(O)CC[C@@H]12 [Compound 49]
[A] 79

----------
# Tested on: cancer cells
# experiment: Survival rate of cancer cells after test compound is added (flow cytometry, Annexin V-FITC/PI, clinical specimen)
# Format: cell-based, patient
# measurement conditions: Homo sapiens, 18 h, Colon adenocarcinoma; 20.0 μM; read-out: Survival rate (%) All cells (Stem cells and ordinary cells)
For each of the compounds below, state its viability at 20 µM.
Form field: result (number plus unit)

Previously resolved entries follow.
>>> data_value("C=C1C(=O)O[C@@H]2[C@@H]3[C@@H](CCC34CC4)C3(CC[C@@H]12)CC3")
"89%"
>>> data_value("C=C1C(=O)O[C@@H]2[C@H]3C(C)=CC[C@@]34O[C@@]4(C)CC[C@@H]12")
"49%"
>>> data_value("CN(C)C[C@@H]1C(=O)O[C@H]2[C@H]1CCC1(CC1)[C@@H]1CCC3(CC3)[C@H]21")
"87%"
>>> data_value("C=C1C(=O)O[C@H]2[C@H]1CC[C@@](C)(OC)C1CC[C@@](C)(O)[C@@H]12 (stereo partly drawn)")
"89%"
>>> data_value("C=C1C(=O)O[C@H]2[C@H]1CCC(C)=C1CC[C@@](C)(OC(=O)CCCc3cn(CCCCCCO)nn3)[C@@H]12")
"56%"

Batch lookup, viability at 20 µM per entry.
1. C=C1C(=O)O[C@@H]2[C@@H]3[C@@H](CC[C@@]3(C)O)[C@](C)(O)CC[C@@H]12
2. C=C1C(=O)O[C@H]2[C@H]1CC[C@]1(C)O[C@@]13CC[C@@](C)(O)[C@H]23
3. CCOC(=O)[C@@H]1CCCN1C[C@@H]1C(=O)O[C@H]2[C@H]1CCC1(CC1)[C@@H]1CCC3(CC3)[C@H]21
4. C=C1CC[C@H]2C(=C)CC[C@H]3C(=C)C(=O)O[C@@H]3[C@@H]12

[A]
1. 86%
2. 57%
3. 83%
4. 49%
